- Protocol: Rat pharmacokinetics, oral dosing
- Assay type: in vivo, Sprague-Dawley rats
- Stated conditions: male, Sprague-Dawley, oral dosing at 3 mg/kg, plasma
Quick list: Cmax per entry.

>>> result_value("C[C@]1(c2ccc(Cl)cn2)Oc2cccc(C3CCN(Cc4nc5c(O)cc(C(=O)O)cc5n4Cc4cncs4)CC3)c2O1")
"< 500 ng/mL"
>>> result_value("Cn1c(CN2CCC(c3cccc(OCc4ccc(Cl)c5ccoc45)n3)CC2)nc2c(OC(F)F)cc(C(=O)O)cc21")
"2000 to 5000 ng/mL"
>>> result_value("COc1cc(C(=O)O)cc2c1nc(CN1CCC(c3cccc(OCc4ccc(Cl)c5c4OCC5)n3)CC1)n2C")
"2000 to 5000 ng/mL"

Lab note: measured Cmax of "COc1cc(C(=O)O)cc2c1nc(CN1CC[C@@H](c3cccc4c3O[C@@](C)(c3ccc(Cl)cn3)O4)[C@@H]3C[C@@H]31)n2C[C@@H]1CCO1" was < 500 ng/mL

Lab note: measured Cmax of "C[C@]1(c2ccc(Cl)cn2)Oc2cccc(C3CCN(Cc4nc5c(OCCF)cc(C(=O)O)cc5n4C[C@@H]4CCO4)CC3)c2O1" was < 500 ng/mL

Lab note: measured Cmax of "Cn1c(CN2CCC(c3ccc(F)c(OCc4ccc(C#N)cc4F)n3)CC2)nc2c(OC(F)F)cc(C(=O)O)cc21" was > 5000 ng/mL

Lab note: measured Cmax of "CC(F)(F)c1cc(C(=O)O)cc2c1nc(CN1CCC(c3cccc4c3O[C@](C)(c3ccc(Cl)cn3)O4)CC1)n2C[C@@H]1CCO1" was 500 to 1000 ng/mL

Lab note: measured Cmax of "Cn1c(CN2CCC(c3cccc4c3O[C@@H](c3ccc(Cl)cc3F)CO4)CC2)nc2c(OCCF)cc(C(=O)O)cc21" was < 500 ng/mL

Lab note: measured Cmax of "COc1cc(C(F)(F)F)ccc1COc1cccc(C2CCN(Cc3nc4c(OC)cc(C(=O)O)cc4n3C)CC2)n1" was 2000 to 5000 ng/mL

Lab note: measured Cmax of "COc1c(F)c(C(=O)O)cc2c1nc(CN1CCC(c3cccc(OCc4ccc(C#N)cc4F)n3)CC1)n2C" was 500 to 1000 ng/mL

====

- Protocol: Rat pharmacokinetics, oral dosing
- Assay type: in vivo, Sprague-Dawley rats
- Stated conditions: male, Sprague-Dawley, oral dosing at 3 mg/kg, plasma, read-out: Rat T1/2
Observation type: half-life

Please review the following examples before continuing.
>>> result_value("[2H]C([2H])(C)Oc1cc(C(=O)O)cc2c1nc(CN1CCC(c3cccc(OCc4ccc(Cl)cc4F)n3)CC1)n2C")
"1.5 to 2.5 h"
>>> result_value("C[C@]1(c2ccc(Cl)cn2)Oc2cccc(C3CCN(Cc4nc5c(O)cc(C(=O)O)cc5n4Cc4cncs4)CC3)c2O1")
"1.5 to 2.5 h"
>>> result_value("Cn1c(CN2CCC(c3cccc(OCc4ccc(Cl)cc4F)n3)CC2)nc2c(OCF)cc(C(=O)O)cc21")
"≥ 2.5 h"
>>> result_value("COc1cc(C(=O)O)cc2c1nc(Cc1cc(F)c(-c3cccc(OCc4ccc(C#N)cc4F)n3)cc1F)n2C")
"1.5 to 2.5 h"
>>> result_value("COc1cc(C(=O)O)cc2c1nc(CN1CCC(c3cccc(OCc4ccc(C#N)cc4F)n3)CC1)n2C")
"1.5 to 2.5 h"
>>> result_value("C[C@]1(c2ccc(Cl)cn2)Oc2cccc(C3CCN(Cc4nc5c(OC6COC6)cc(C(=O)O)cc5n4C[C@@H]4CCO4)CC3)c2O1")
"< 1.5 h"

// moving on: another record for half-life
Lab note: measured half-life of "COc1cc(C(F)(F)F)ccc1COc1cccc(C2CCN(Cc3nc4c(OC)cc(C(=O)O)cc4n3C)CC2)n1" was 1.5 to 2.5 h
